system: MCF7; assay: NCI tumour cell line growth inhibition, 48 h
The source made the active and inactive calls. No stated cut-off is given here; in the data, active = GI50 up to about 1.1 µM and inactive = higher.
Choose one outcome from this list and give only that: active, inactive

compound	class name
CCOC(=O)N1CCN(c2c(C)nc(C)nc2O)CC1	inactive
Cc1ccc(C(=O)Nc2ccc(CP(=O)(O)O)cc2)cc1NC(=O)c1cccc(NC(=O)Nc2cccc(C(=O)Nc3cc(C(=O)Nc4ccc(CP(=O)(O)O)cc4)ccc3C)c2)c1	inactive
Cn1c(=O)c2nc[nH]c2n(C)c1=O [THEOPHYLLINE]	inactive
Cc1cc(OCc2nc(N)nc(N)c2-c2ccc(Cl)c(Cl)c2)ccc1[N+](=O)[O-]	active

### Prompt Called result for CSc1nc(Cl)c2c(n1)Sc1nc3cc4c(cc3n1C2O)OCCO4 (stereo not given)
### Response active
